Where do these numbers come from? They come from patent US6770597B2.

System: sicklepod (Cassia obtusifolia, CASOB)
Assay: Greenhouse herbicide screen, post-emerge application, phytotoxicity rating
Format: in vivo
Conditions: POST emergent, 250 g ai/ha, 14 days after application, scale 0-100
Property: phytotoxicity rating CASOB; scope: individual compounds
Response field accepts a number only; no unit should be typed.

Example entries begin here.
{"columns": ["compound", "experimental target", "phytotoxicity rating CASOB"],
 "data": [
  ["Cn1c(C(F)(F)F)cc(=O)n(-c2cc(C(=O)NN(Cc3ccccc3)Cc3ccccc3)c(Cl)cc2F)c1=O [Compound 1-29]", "sicklepod (Cassia obtusifolia, CASOB)", 100],
  ["COC(=NN=C(C(C)(C)C)C(C)(C)C)c1cc(-n2c(=O)cc(C(F)(F)F)n(C)c2=O)c(F)cc1Cl [Compound 5-6]", "sicklepod (Cassia obtusifolia, CASOB)", 98],
  ["CN1CCN(NC(=O)c2cc(-n3c(=O)cc(C(F)(F)F)n(C)c3=S)c(F)cc2Cl)CC1 [Compound 1-14]", "sicklepod (Cassia obtusifolia, CASOB)", 0]
]}

Then there is this compound:
Prompt: Look up phytotoxicity rating CASOB: CN(C)NC(=O)c1cc(-n2c(=O)cc(C(F)(F)F)n(C)c2=O)ccc1Cl [Compound 1-4]
Response: 80

---

Property: phytotoxicity rating SORHA; scope: individual compounds
Test system: johnsongrass (Sorghum halepense, SORHA)
Experiment: Greenhouse herbicide screen, pre-emerge application, phytotoxicity rating
Assay type: in vivo
Settings: PRE emergent, 63 g ai/ha, 14 days after application, rating scale 0-100
Response field accepts a number only; no unit should be typed.

Example entries begin here.
{"columns": ["compound", "phytotoxicity rating SORHA"],
 "data": [
  ["Cn1c(C(F)(F)F)cc(=O)n(-c2cc(C(=O)NN=C(c3ccccc3)c3ccccc3)c(Cl)cc2F)c1=O [Compound 6-15]", 40],
  ["CN(NC(=O)c1cc(-n2c(=O)cc(C(F)(F)F)n(C)c2=O)c(F)cc1Cl)c1ccccc1 [Compound 1-9]", 60],
  ["CC(=NNC(=O)c1cc(-n2c(=O)cc(C(F)(F)F)n(C)c2=O)c(F)cc1Cl)C(C)(C)C [Compound 6-5]", 85]
]}

Prompt: Look up phytotoxicity rating SORHA: COC(=NN=C(C(C)(C)C)C(C)(C)C)c1cc(-n2c(=O)cc(C(F)(F)F)n(C)c2=O)c(F)cc1Cl [Compound 5-6]
Response: 25

Prompt: Quick one: CN(C)NC(=O)c1cc(-n2c(=O)cc(C(F)(F)F)n(C)c2=O)ccc1Cl [Compound 1-4]
Response: 0

Prompt: Quick one: Cn1c(C(F)(F)F)cc(=O)n(-c2cc(C(=O)NN=C(C(C)(C)C)C(C)(C)C)c(Cl)cc2F)c1=O [Compound 6-4]
Response: 99

Prompt: Quick one: CN(N=C(C(C)(C)C)C(C)(C)C)C(=O)c1cc(-n2c(=O)cc(C(F)(F)F)n(C)c2=O)c(F)cc1Cl [Compound 6-8]
Response: 55

---

Tested on: velvetleaf (Abutilon theophrasti, ABUTH)
Assay: Greenhouse herbicide screen, pre-emerge application, phytotoxicity rating
Type: in vivo
Conditions: PRE emergent, 250 g ai/ha, 14 days after application, rating scale 0-100
property name: phytotoxicity rating ABUTH

Example entries begin here.
{"columns": ["compound", "phytotoxicity rating ABUTH"],
 "data": [
  ["CN(N=C(C(C)(C)C)C(C)(C)C)C(=O)c1cc(-n2c(=O)cc(C(F)(F)F)n(C)c2=O)c(F)cc1Cl", 99],
  ["C#CCOC(=NN=C(C(C)(C)C)C(C)(C)C)c1cc(-n2c(=O)cc(C(F)(F)F)n(C)c2=O)c(F)cc1Cl", 99],
  ["Cn1c(C(F)(F)F)cc(=O)n(-c2cc(C(=O)NNC(=O)OC(C)(C)C)c(Cl)cc2F)c1=O", 99]
]}

Prompt: Look up phytotoxicity rating ABUTH: CC1CCCC(C)N1NC(=O)c1cc(-n2c(=O)cc(C(F)(F)F)n(C)c2=S)c(F)cc1Cl (stereo not shown)
Response: 100

---

Tested on: johnsongrass (Sorghum halepense, SORHA)
Assay: Greenhouse herbicide screen, post-emerge application, phytotoxicity rating
Assay type: in vivo
Details: POST emergent, 250 g ai/ha, 14 days after application, scale 0-100
Property: phytotoxicity rating SORHA; scope: individual compounds
Response field accepts a number only; no unit should be typed.

{"columns": ["compound", "phytotoxicity rating SORHA"],
 "data": [
  ["CCOC(=O)NNC(=O)c1cc(-n2c(=O)cc(C(F)(F)F)n(C)c2=O)c(F)cc1Cl [Compound 1-23]", 99],
  ["CC(=NNC(=O)c1cc(-n2c(=O)cc(C(F)(F)F)n(C)c2=O)c(F)cc1Cl)C(C)(C)C [Compound 6-5]", 90]
]}

Then there is this compound:
Prompt: Look up phytotoxicity rating SORHA: CC1CCCC(C)N1NC(=O)c1cc(-n2c(=O)cc(C(F)(F)F)n(C)c2=O)c(F)cc1Cl (stereo not drawn) [Compound 1-16]
Response: 99

---

Tested on: sicklepod (Cassia obtusifolia, CASOB)
Assay: Greenhouse herbicide screen, post-emerge application, phytotoxicity rating
Assay type: in vivo
Details: POST emergent, 250 g ai/ha, 14 days after application, scale 0-100
Property: phytotoxicity rating CASOB; scope: individual molecules
Response field accepts a number only; no unit should be typed.

Example entries begin here.
{"columns": ["molecule", "property name", "measured result"],
 "data": [
  ["CC(=O)OC(=NN1C(C)CCCC1C)c1cc(-n2c(=O)cc(C(F)(F)F)n(C)c2=O)c(F)cc1Cl (stereo not shown)", "phytotoxicity rating CASOB", 90],
  ["CC(=NNC(=O)c1cc(-n2c(=O)cc(C(F)(F)F)n(C)c2=O)c(F)cc1Cl)C(C)(C)C", "phytotoxicity rating CASOB", 65],
  ["Cn1c(C(F)(F)F)cc(=O)n(-c2cc(C(=O)NN3CCCC3)c(Cl)cc2F)c1=O", "phytotoxicity rating CASOB", 80]
]}

Then there is this molecule:
Prompt: Provide the documented phytotoxicity rating CASOB with sicklepod (Cassia obtusifolia, CASOB) as the system for Cn1c(C(F)(F)F)cc(=O)n(-c2cc(C(=O)NNC(=O)OC(C)(C)C)c(Cl)cc2F)c1=O
Response: 95

---

System: redroot pigweed (Amaranthus retrofiexus, AMARE)
Assay: Greenhouse herbicide screen, pre-emerge application, phytotoxicity rating
Assay type: in vivo
Conditions: PRE emergent, 63 g ai/ha, 14 days after application, rating scale 0-100
Property: phytotoxicity rating AMARE; scope: individual compounds

Example entries begin here.
{"columns": ["compound", "experimental target", "property name", "measured result"],
 "data": [
  ["Cn1c(C(F)(F)F)cc(=O)n(-c2cc(C(=O)NN=C(c3ccccc3)c3ccccc3)c(Cl)cc2F)c1=O", "redroot pigweed (Amaranthus retrofiexus, AMARE)", "phytotoxicity rating AMARE", 100],
  ["CC1CCCC(C)N1NC(=O)c1cc(-n2c(=O)cc(C(F)(F)F)n(C)c2=O)c(F)cc1Cl (stereo not drawn)", "redroot pigweed (Amaranthus retrofiexus, AMARE)", "phytotoxicity rating AMARE", 100],
  ["C#CCOC(=NN=C(C(C)(C)C)C(C)(C)C)c1cc(-n2c(=O)cc(C(F)(F)F)n(C)c2=O)c(F)cc1Cl", "redroot pigweed (Amaranthus retrofiexus, AMARE)", "phytotoxicity rating AMARE", 60],
  ["CC1CCCC(C)N1N=C(OC(=O)C(Cl)Cl)c1cc(-n2c(=O)cc(C(F)(F)F)n(C)c2=O)c(F)cc1Cl (stereo not drawn)", "redroot pigweed (Amaranthus retrofiexus, AMARE)", "phytotoxicity rating AMARE", 100],
  ["CN1CCN(NC(=O)c2cc(-n3c(=O)cc(C(F)(F)F)n(C)c3=S)c(F)cc2Cl)CC1", "redroot pigweed (Amaranthus retrofiexus, AMARE)", "phytotoxicity rating AMARE", 95]
]}

Prompt: Provide the documented phytotoxicity rating AMARE with redroot pigweed (Amaranthus retrofiexus, AMARE) as the system for CN(C)NC(=O)c1cc(-n2c(=O)cc(C(F)(F)F)n(C)c2=O)ccc1Cl
Response: 40

Prompt: Quick one: CN(N=C(C(C)(C)C)C(C)(C)C)C(=O)c1cc(-n2c(=O)cc(C(F)(F)F)n(C)c2=O)c(F)cc1Cl
Response: 100

Prompt: Quick one: Cn1c(C(F)(F)F)cc(=O)n(-c2cc(C(=O)NN3CCCC3)c(Cl)cc2F)c1=O
Response: 100

Prompt: Quick one: CN(NC(=O)c1cc(-n2c(=O)cc(C(F)(F)F)n(C)c2=O)c(F)cc1Cl)c1ccccc1
Response: 100

---

Property: phytotoxicity rating XANST; scope: individual compounds
System: cocklebur (Xanthium strumarium, XANST)
Assay: Greenhouse herbicide screen, post-emerge application, phytotoxicity rating
Assay type: in vivo
Details: POST emergent, 250 g ai/ha, 14 days after application, scale 0-100
Response field accepts a number only; no unit should be typed.

{"columns": ["compound", "property name", "measured result"],
 "data": [
  ["Cn1c(C(F)(F)F)cc(=O)n(-c2cc(C(=O)NN3CCCC3)c(Cl)cc2F)c1=O", "phytotoxicity rating XANST", 100],
  ["Cn1c(C(F)(F)F)cc(=O)n(-c2cc(C(=O)NN=C(C(C)(C)C)C(C)(C)C)c(Cl)cc2F)c1=O", "phytotoxicity rating XANST", 100]
]}

Prompt: Look up phytotoxicity rating XANST: CC(=O)OC(=NN1C(C)CCCC1C)c1cc(-n2c(=O)cc(C(F)(F)F)n(C)c2=O)c(F)cc1Cl (stereo not drawn)
Response: 60
